Where these numbers come from: ChEMBL document CHEMBL3352769

target of assay: Monoacylglycerol lipase ABHD6 (Homo sapiens)
Sequence (Q9BV23 whole entry): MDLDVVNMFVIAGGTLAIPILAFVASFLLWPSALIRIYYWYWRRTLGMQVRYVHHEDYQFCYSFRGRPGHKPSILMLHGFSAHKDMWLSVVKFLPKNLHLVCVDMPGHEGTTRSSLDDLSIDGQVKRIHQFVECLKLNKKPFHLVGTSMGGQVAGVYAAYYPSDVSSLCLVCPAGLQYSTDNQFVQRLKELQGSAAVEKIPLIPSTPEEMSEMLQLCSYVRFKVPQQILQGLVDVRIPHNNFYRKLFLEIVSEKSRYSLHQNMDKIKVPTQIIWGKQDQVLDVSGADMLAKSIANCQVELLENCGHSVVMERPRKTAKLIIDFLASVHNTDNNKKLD
run description: Inhibition of human ABHD6 expressed in HEK293T cell membranes assessed as reduction in glycerol production using 2-arachidonoyl glycerol substrate

structure smiles string	value units	Ki
CC1(C)CCc2cc(S(=O)(=O)N(CC(=O)O)Cc3cccc(Oc4ccccc4)c3)ccc2O1	µM	18.3
CC1(C)CCc2cc(S(=O)(=O)N(CC(=O)O)Cc3ccc(Oc4ccccc4)cc3)ccc2O1	µM	0.8
CC1(C)CCc2cc(S(=O)(=O)N(CC(=O)O)Cc3ccc(Oc4ccc(C(F)(F)F)cn4)cc3)ccc2O1	µM	2.7
